B1: PBXIP1 (parent)
chain: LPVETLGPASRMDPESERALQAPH

Variants of: B1
procedure.summary: protein stability index of a GFP-peptide fusion (GPS, HEK-293T) (PSI 1-6); higher = more stable;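 note: lentivirally expressed fusions sorted by FACS into six bins by GFP to DsRed ratio, PSI derived from sequencing read proportions per bin multiplied by bin number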
experimental.setup: c terminus: a fixed tail appended
quantity.measured: protein stability index

query: Assign protein stability index to the following record: LPVEKLGPASRMDPESERALQAPH [T5K]
result: 4.38

query: Input LPDETLGPASRMDPESERALQAPH [V3D] , output reported protein stability index.
result: 5.5

These measurements were taken from the supplement of paper PMC10567573.
